subjectOfTest: cynomolgus BCMA (cynomolgus monkey)
Sequence (chain, as listed by the source): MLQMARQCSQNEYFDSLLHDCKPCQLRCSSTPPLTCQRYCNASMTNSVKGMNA
procedureSummary: SPR
We begin with a simple list: items and their reported pKd.
Remember the convention: pKd equals -log10 of concentration in molar.

J22.9-ISY, humanized and CDR-optimized IgG (antibody, V domains shown) VH: EVQLVESGGGLVQPGGSLRLSCAASGFTFSRYWISWVRQAPGKGLVWVGEINPSSSTINYAPSLKDKFTISRDNAKNTLYLQMNSLRAEDTAVYYCASLYYDYGDAYDYWGQGTLVTVSS VL: EIVMTQSPATLSVSPGERATLSCKASQSVESNVAWYQQKPGQAPRALIYSASLRFSGIPARFSGSGSGTEFTLTISSLQSEDFAVYYCQQYNNYPLTFGAGTKLELK    7.77

GET /value?item= J22.9-xi, chimaeric mouse/human IgG (antibody, V domains shown) VH: QVQLQQSGGGLVQPGGSLKLSCAASGIDFSRYWMSWVRRAPGKGLEWIGEINPDSSTINYAPSLKDKFIISRDNAKNTLYLQMSKVRSEDTALYYCASLYYDYGDAMDYWGQGTSVTVSS VL: DIVMTQSQRFMTTSVGDRVSVTCKASQSVDSNVAWYQQKPRQSPKALIFSASLRFSGVPARFTGSGSGTDFTLTISNLQSEDLAEYFCQQYNNYPLTFGAGTKLELK &field=pKd returns 8.57

GET /value?item= J22.9-FSY, humanized and CDR-optimized IgG (antibody, V domains shown) VH: EVQLVESGGGLVQPGGSLRLSCAASGFTFSRYWFSWVRQAPGKGLVWVGEINPSSSTINYAPSLKDKFTISRDNAKNTLYLQMNSLRAEDTAVYYCASLYYDYGDAYDYWGQGTLVTVSS VL: EIVMTQSPATLSVSPGERATLSCKASQSVESNVAWYQQKPGQAPRALIYSASLRFSGIPARFSGSGSGTEFTLTISSLQSEDFAVYYCQQYNNYPLTFGAGTKLELK &field=pKd returns 7.70

GET /value?item= J22.9-H, humanized IgG (all humanizing substitutions in VH and VL except A46L in VL) (antibody, V domains shown) VH: EVQLVESGGGLVQPGGSLRLSCAASGFTFSRYWMSWVRQAPGKGLVWVGEINPDSSTINYAPSLKDKFTISRDNAKNTLYLQMNSLRAEDTAVYYCASLYYDYGDAMDYWGQGTLVTVSS VL: EIVMTQSPATLSVSPGERATLSCKASQSVDSNVAWYQQKPGQAPRALIYSASLRFSGIPARFSGSGSGTEFTLTISSLQSEDFAVYYCQQYNNYPLTFGAGTKLELK &field=pKd returns 6.70
